# protocol_text: Cytotoxicity against Mesangial cell (unknown origin) at 0.01 to 100 uM by CCK8 assay
# Type: tissue-based
# assay_setup: dose 0.01-100 µM
experimental_endpoint: Activity

{"molecule": "COc1cc2cc(Oc3ccc4ccc(=O)oc4c3)c(=O)oc2cc1O[C@@H]1O[C@H](CO)[C@@H](O)[C@H](O)[C@H]1O [DAPHNORIN]", "recorded_measurement": "Non-Toxic"}
{"molecule": "O=c1ccc2ccc(Oc3cc4ccc(=O)oc4cc3O)cc2o1", "recorded_measurement": "Non-Toxic"}
{"molecule": "O=c1ccc2ccc(Oc3cc4ccc(O)cc4oc3=O)cc2o1 [EDGEWORIN]", "recorded_measurement": "Non-Toxic"}
{"molecule": "COc1cc2cc(Oc3ccc4ccc(=O)oc4c3)c(=O)oc2cc1O [DAPHNORETIN]", "recorded_measurement": "Non-Toxic"}

These data points were gathered from ChEMBL document CHEMBL4665754.
